# System: HOP-62 multicell spheroids with HUVEC/MSC, viability
# ASSAY NOTES: Anticancer human tumor HOP-62 cell line growth inhibition [KRAS2]; active = viability on the fitted dose curve at most 10% of control; inactive = the rest;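 also: viability read after a week of compound exposure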
# APPLIED CONDITIONS: second compound 3.16 µM; first compound 0.01 µM
Just give me one of these, please: active, inactive

Completed entries (count: 4):
>  <COMPOUND>
CC(=O)Nc1cccc(-n2c(=O)n(C3CC3)c(=O)c3c(Nc4ccc(I)cc4F)n(C)c(=O)c(C)c32)c1 + COc1cc2nc(C)nc(NC(C)c3cc(N)cc(C(F)(F)F)c3)c2cc1OC1CCOC1

>  <EXPERIMENTAL SYSTEM>
HOP-62 multicell spheroids with HUVEC/MSC, viability

>  <DISCRETE LABEL>
inactive

$$$$
>  <COMPOUND>
CC(=O)OC12COC1CC(O)C1(C)C(=O)C(O)C3=C(C)C(OC(=O)C(O)C(NC(=O)OC(C)(C)C)c4ccccc4)CC(O)(C(OC(=O)c4ccccc4)C21)C3(C)C (stereo not given) + CC1OCC2(CCN(c3cnc(Sc4ccnc(N)c4Cl)c(N)n3)CC2)C1N

>  <EXPERIMENTAL SYSTEM>
HOP-62 multicell spheroids with HUVEC/MSC, viability

>  <DISCRETE LABEL>
inactive

$$$$
>  <COMPOUND>
CC(C)n1nc(-c2ccc3oc(N)nc3c2)c2c(N)ncnc21 + CNCc1ccccc1-c1csc(C(C)Nc2nc(C)nc3cc(OC)c(OC)cc23)c1

>  <EXPERIMENTAL SYSTEM>
HOP-62 multicell spheroids with HUVEC/MSC, viability

>  <DISCRETE LABEL>
active

$$$$
>  <COMPOUND>
CC1COCCN1c1cc(-c2ccnn2C)c2ccnc(-c3ccn[nH]3)c2n1 (stereo not given) + CNCc1ccccc1-c1csc(C(C)Nc2nc(C)nc3cc(OC)c(OC)cc23)c1

>  <EXPERIMENTAL SYSTEM>
HOP-62 multicell spheroids with HUVEC/MSC, viability

>  <DISCRETE LABEL>
active

$$$$

Now consider the entry below.
Q. Answer briefly: the call reported for Cn1ncnc1[C@H]1c2n[nH]c(=O)c3cc(F)cc(c23)N[C@@H]1c1ccc(F)cc1 + CC1OCC2(CCN(c3cnc(Sc4ccnc(N)c4Cl)c(N)n3)CC2)C1N in this assay.
A. inactive

====

# Tested on: HOP-62 multicell spheroids with HUVEC/MSC, viability
# ASSAY NOTES: Anticancer human tumor HOP-62 cell line growth inhibition [KRAS2];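 also: viability read after a week of compound exposure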
# APPLIED CONDITIONS: curve of first compound; second compound 0.316 µM
pIC50: −log10 of the molar value.
Lab note: compare pIC50 against 7. Equal or greater, write 1. Smaller, write -1.

>  <COMPOUND>
CCNC(=O)CC1N=C(c2ccc(Cl)cc2)c2cc(OC)ccc2-n2c(C)nnc21 (centres undefined) + C=CC(=O)N1CCN(c2nc(OCC3CCCN3C)nc3c2CCN(c2cccc4cccc(C)c24)C3)CC1CC#N

>  <DISCRETE LABEL>
-1

$$$$
>  <COMPOUND>
CN(C)C/C=C/C(=O)Nc1cc2c(Nc3ccc(F)c(Cl)c3)ncnc2cc1O[C@H]1CCOC1 + C=CC(=O)N1CCN(c2nc(=O)n(-c3c(C)ccnc3C(C)C)c3nc(-c4c(O)cccc4F)c(F)cc23)C(C)C1

>  <DISCRETE LABEL>
-1

$$$$
>  <COMPOUND>
Cn1ncnc1[C@H]1c2n[nH]c(=O)c3cc(F)cc(c23)N[C@@H]1c1ccc(F)cc1 + CC1OCC2(CCN(c3cnc(Sc4ccnc(N)c4Cl)c(N)n3)CC2)C1N

>  <DISCRETE LABEL>
-1

$$$$
>  <COMPOUND>
CCN1CCN(Cc2ccc(Nc3ncc(F)c(-c4cc(F)c5nc(C)n(C(C)C)c5c4)n3)nc2)CC1 + COc1cc2nc(C)nc(NC(C)c3cc(N)cc(C(F)(F)F)c3)c2cc1OC1CCOC1

>  <DISCRETE LABEL>
-1

$$$$
>  <COMPOUND>
CCN1CCN(Cc2ccc(Nc3ncc(F)c(-c4cc(F)c5nc(C)n(C(C)C)c5c4)n3)nc2)CC1 + C=CC(=O)N1CCN(c2nc(=O)n(-c3c(C)ccnc3C(C)C)c3nc(-c4c(O)cccc4F)c(F)cc23)C(C)C1

>  <DISCRETE LABEL>
1

$$$$
>  <COMPOUND>
Cn1ncnc1[C@H]1c2n[nH]c(=O)c3cc(F)cc(c23)N[C@@H]1c1ccc(F)cc1 + C=CC(=O)N1CCN(c2nc(=O)n(-c3c(C)ccnc3C(C)C)c3nc(-c4c(O)cccc4F)c(F)cc23)C(C)C1

>  <DISCRETE LABEL>
1

$$$$
>  <COMPOUND>
CC(=O)OC12COC1CC(O)C1(C)C(=O)C(O)C3=C(C)C(OC(=O)C(O)C(NC(=O)OC(C)(C)C)c4ccccc4)CC(O)(C(OC(=O)c4ccccc4)C21)C3(C)C (centres undefined) + C=CC(=O)N1CCN(c2nc(=O)n(-c3c(C)ccnc3C(C)C)c3nc(-c4c(O)cccc4F)c(F)cc23)C(C)C1

>  <DISCRETE LABEL>
1

$$$$
>  <COMPOUND>
CC(=O)Nc1cccc(-n2c(=O)n(C3CC3)c(=O)c3c(Nc4ccc(I)cc4F)n(C)c(=O)c(C)c32)c1 + C=CC(=O)N1CCN(c2nc(=O)n(-c3c(C)ccnc3C(C)C)c3nc(-c4c(O)cccc4F)c(F)cc23)C(C)C1

>  <DISCRETE LABEL>
1

$$$$
>  <COMPOUND>
CC1COCCN1c1cc(-c2ccnn2C)c2ccnc(-c3ccn[nH]3)c2n1 (centres undefined) + C=CC(=O)N1CCN(c2nc(=O)n(-c3c(C)ccnc3C(C)C)c3nc(-c4c(O)cccc4F)c(F)cc23)C(C)C1

>  <DISCRETE LABEL>
1

$$$$
>  <COMPOUND>
CC1(C)CCC(CN2CCN(c3ccc(C(=O)NS(=O)(=O)c4ccc(NCC5CCOCC5)c([N+](=O)[O-])c4)c(Oc4cnc5[nH]ccc5c4)c3)CC2)=C(c2ccc(Cl)cc2)C1 + C=CC(=O)N1CCN(c2nc(=O)n(-c3c(C)ccnc3C(C)C)c3nc(-c4c(O)cccc4F)c(F)cc23)C(C)C1

>  <DISCRETE LABEL>
-1

$$$$

Q. For this compound, is measured pIC50 7 or higher? CCNC(=O)CC1N=C(c2ccc(Cl)cc2)c2cc(OC)ccc2-n2c(C)nnc21 (centres undefined) + CC1OCC2(CCN(c3cnc(Sc4ccnc(N)c4Cl)c(N)n3)CC2)C1N
A. -1

Q. For this compound, is measured pIC50 7 or higher? CCN1CCN(Cc2ccc(Nc3ncc(F)c(-c4cc(F)c5nc(C)n(C(C)C)c5c4)n3)nc2)CC1 + C=CC(=O)N1CCN(c2nc(OCC3CCCN3C)nc3c2CCN(c2cccc4cccc(C)c24)C3)CC1CC#N
A. 1

Where do the numbers come from? From PubChem BioAssay AID1963858.
